Source: patent US10633399B2

Test: Cell viability assay (MTT), MDA-MB-231
Conditions: human, MDA-MB-231 breast cancer cells
Measured endpoint: viability at 72 h, 50 µM (%)
Answer with a number only, understood to be in %.

// known answers, use as guide
OB1OCc2ccc(NCc3cc4ccccc4nc3Cl)cc21 [Compound 16] : 44.8
O=C(NCCCl)N(Cc1ccccc1)c1ccc2c(c1)B(O)OC2 [Compound 27] : 101
OB1OCc2ccc(NCc3ccc(Cl)c(Cl)c3)cc21 [Compound 6] : 68.7
O=NN(Cc1ccc(F)cc1)c1ccc2c(c1)B(O)OC2 [Compound 19] : 108

What measured viability at 72 h, 50 µM goes with COc1ccc(CN(C(=O)NCCCl)c2ccc3c(c2)B(O)OC3)cc1 [Compound 28] ? 63.2

And what about the compound O=C(Nc1ccccc1)N(Cc1ccccc1)c1ccc2c(c1)B(O)OC2 [Compound 23] ? 47

And what about the compound OB1OCc2ccc(NCc3ccc(F)cc3F)cc21 [Compound 4] ? 90

And what about the compound Cc1ccc(CNc2ccc3c(c2)B(O)OC3)cc1 [Compound 9] ? 82.8

And what about the compound O=C(O)c1ccc(CNc2ccc3c(c2)B(O)OC3)cc1 [Compound 7] ? 124

And what about the compound O=NN(Cc1ccccc1)c1ccc2c(c1)B(O)OC2 [Compound 17] ? 115
